- Study System: Tubulin (Bos taurus) (UniProt Q6B856+Q862F3);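 note: Read-out is displacement of [3H]colchicine bound to tubulin isolated from bovine brain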
- Stated Conditions: at 5 µM
- Description: Displacement of [3H]colchicine from bovine brain tubulin at 5 uM
Form field: inhibition (one value per entry).
Measurement Name: inhibition (%)

INSERT INTO results (sample_smiles, measured_value) VALUES
  ('COc1cccc(C(=O)n2c(-c3cn(C)c4ccc(Br)cc34)nc3ccccc32)c1', 78),
  ('COc1ccc(C(=O)n2c(-c3cn(C)c4ccc(OC)cc34)nc3ccccc32)cc1', 82),
  ('COc1ccc(C(=O)n2c(-c3cn(C)c4ccccc34)nc3ccccc32)cc1', 80),
  ('COc1cccc(C(=O)n2c(-c3cn(C)c4ccccc34)nc3ccccc32)c1', 81);
